target: CYP 2C9 (Homo sapiens (Human), UniProt P11712); assay: P450-Glo CYP450 inhibition, CYP 2C9; assay type: in vitro ADME; conditions: human, P450-Glo Assay System (Promega), CYP 2C9 membranes, CYP 2C9, 10 μM; read-out: Inhibition, % Mean
Sequence (P11712 whole entry): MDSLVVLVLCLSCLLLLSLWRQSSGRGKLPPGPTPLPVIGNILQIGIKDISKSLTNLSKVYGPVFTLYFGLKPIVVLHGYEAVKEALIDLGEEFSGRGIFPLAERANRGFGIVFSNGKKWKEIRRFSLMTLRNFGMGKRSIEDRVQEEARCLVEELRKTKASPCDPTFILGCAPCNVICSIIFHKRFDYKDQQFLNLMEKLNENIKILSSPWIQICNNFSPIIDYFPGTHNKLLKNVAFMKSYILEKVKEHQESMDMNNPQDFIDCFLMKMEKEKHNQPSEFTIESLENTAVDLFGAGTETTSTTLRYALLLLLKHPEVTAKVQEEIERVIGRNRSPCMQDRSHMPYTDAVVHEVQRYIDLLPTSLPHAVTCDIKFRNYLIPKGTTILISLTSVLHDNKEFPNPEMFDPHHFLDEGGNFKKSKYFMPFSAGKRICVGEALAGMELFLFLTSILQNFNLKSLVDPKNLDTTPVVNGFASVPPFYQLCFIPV
observation.type: inhibition at 10 µM
Hi, when you answer, please include the unit after the number. Thanks!

O=C(Cn1cnc2c1CCCC2)Nc1ccc(-c2ccccc2)cc1 ... 24%
CC(C)c1nccn1CC(=O)Nc1ccc(-c2ccccc2)cc1 ... 28.4%
O=C(Cn1ccnc1-c1ccccn1)Nc1ccc(-c2ccccc2)cc1 ... 8.2%
CC(C)(C)Sc1ccc(NC(=O)Cn2ccnc2)cc1 ... 97.6%

We now examine a further molecule.
Measured inhibition at 10 µM (CYP 2C9 (Homo sapiens (Human), UniProt P11712)), entry Cc1nc2c(c(N3CCCN(Cc4ccccc4)CC3)n1)CCCC2 : 14.5%

* * *

tested on: wp2[pKM101]+wp2 uvrA mixed 1:2; experiment: Ames Test, E. coli; details: 100 μM (row printed 200; conc. column shifted)
observation.type: Mean ± SD

O=C(Cn1cnc2c1CCCC2)Nc1ccc(-c2ccccc2)cc1 [Compound 1] ... 0 ± 0 revertant colonies per plate
O=C(Cn1ccnc1-c1ccccn1)Nc1ccc(-c2ccccc2)cc1 [Compound 4] ... 1.5 ± 0.7 revertant colonies per plate

Data point: Cc1nc2c(c(N3CCCN(Cc4ccccc4)CC3)n1)CCCC2 [Compound 31] ; Mean ± SD = 1.5 ± 0.7 revertant colonies per plate

Data point: CC(C)(C)Sc1ccc(NC(=O)Cn2ccnc2)cc1 [Compound 3] ; Mean ± SD = 7 ± 0 revertant colonies per plate

Data point: CC(C)c1nccn1CC(=O)Nc1ccc(-c2ccccc2)cc1 [Compound 2] ; Mean ± SD = 1.5 ± 0.7 revertant colonies per plate

* * *

target: Parkin (Homo sapiens (Human)); assay: Primary HCI assay of EGFP-Parkin translocation to mitochondria; conditions: primary assay screen, Parkin translocation to mitochondria
Sequence (O60260 whole entry): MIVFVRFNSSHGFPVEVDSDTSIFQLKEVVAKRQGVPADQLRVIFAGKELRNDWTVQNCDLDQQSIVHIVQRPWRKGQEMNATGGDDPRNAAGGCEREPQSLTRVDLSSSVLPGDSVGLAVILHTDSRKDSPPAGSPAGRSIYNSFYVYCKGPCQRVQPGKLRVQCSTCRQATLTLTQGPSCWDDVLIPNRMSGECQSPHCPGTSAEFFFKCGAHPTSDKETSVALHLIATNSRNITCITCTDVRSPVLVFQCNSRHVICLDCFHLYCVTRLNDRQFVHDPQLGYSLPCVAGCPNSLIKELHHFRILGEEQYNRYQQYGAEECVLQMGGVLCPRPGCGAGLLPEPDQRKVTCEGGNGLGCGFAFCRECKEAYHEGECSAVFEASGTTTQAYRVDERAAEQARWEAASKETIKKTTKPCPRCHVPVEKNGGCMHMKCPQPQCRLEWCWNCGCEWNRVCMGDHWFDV
Param label: returns True when EC50 < 1000 nM, returns False otherwise, including exact equality.

Sample answers from the record:
O=C(Cn1ccnc1-c1ccccn1)Nc1ccc(-c2ccccc2)cc1 ... True
Cc1nc2c(c(N3CCN(Cc4ccccc4)C(C)(C)C3)n1)CCCC2 ... True
COc1ccc(CN2CCCN(c3ncnc4c3CN(C)CC4)CC2)cc1 ... False
c1ccc(CN2CCCN(c3ncnc4c3CCCC4)CC2)cc1 ... True
Cc1nc2c(c(N3CCN(C(=O)c4ccccc4)CC3)n1)CCCC2 ... False
Cc1nc2c(c(N3CCCN(Cc4ccc(Cl)cc4)CC3)n1)CCCC2 ... True
O=C(Cn1cnc2c1CCCC2)Nc1ccc(-c2ccccc2)cc1 ... True
Cc1nc2c(c(N3CCCN(Cc4noc(C5CC5)n4)CC3)n1)CCCC2 ... True
O=C(Nc1ccc(-c2ccccc2)cc1)c1cn2c(n1)CCCC2 ... True
O=C(Cn1cnc2c1CCCC2)Nc1ccc(-c2ccccc2F)nn1 ... True

IN: Given O=C(Cn1ccnc1)Nc1ccc(-c2ccccc2)c(C(F)(F)F)c1 , is recorded EC50 strictly lower than 1000 nM?
OUT: False

* * *

Entries and their Fold increase (over baseline)
system: TA 1535; conditions: TA 1535, 200 μM
Answer field: number only, no words.

Known Fold increase (over baseline) results, listed for orientation:
O=C(Cn1ccnc1-c1ccccn1)Nc1ccc(-c2ccccc2)cc1 [Compound 4] ... 0
Cc1nc2c(c(N3CCCN(Cc4ccccc4)CC3)n1)CCCC2 [Compound 31] ... 0.57
O=C(Cn1cnc2c1CCCC2)Nc1ccc(-c2ccccc2)cc1 [Compound 1] ... 0

We now examine a further molecule.
Data point: CC(C)c1nccn1CC(=O)Nc1ccc(-c2ccccc2)cc1 [Compound 2] ; Fold increase (over baseline) = 0.23

* * *

Entries and their Fold increase (over baseline)
Tested on: TA 1535
Settings: TA 1535, 100 μM
From the text: The test used amino acid-dependent strains of Salmonella typhimurium and Escherichia coli to detect point mutations which involved substitution, addition or deletion of one or a few DNA base pairs. […] The test detected mutations that revert the mutations present in the bacteria, restoring the functional capability to synthesize histidine or tryptophan. The revertant bacteria were detected by the ability to grow in the absence of the amino acid required by the parent test strain. […]

Known Fold increase (over baseline) results, listed for orientation:
CC(C)(C)Sc1ccc(NC(=O)Cn2ccnc2)cc1 ... 0
CC(C)c1nccn1CC(=O)Nc1ccc(-c2ccccc2)cc1 ... 0.68
Cc1nc2c(c(N3CCCN(Cc4ccccc4)CC3)n1)CCCC2 ... 0.23
O=C(Cn1cnc2c1CCCC2)Nc1ccc(-c2ccccc2)cc1 ... 0

We now examine a further compound.
Data point: O=C(Cn1ccnc1-c1ccccn1)Nc1ccc(-c2ccccc2)cc1 ; Fold increase (over baseline) = 0.34

* * *

Entries and their Fold increase (over baseline)
test system: TA 98; experiment: Ames Test, strain TA 98; settings: TA 98, 200 μM; baseline = mean of negative control + SD
Answer field: number only, no words.

Known Fold increase (over baseline) results, listed for orientation:
O=C(Cn1ccnc1-c1ccccn1)Nc1ccc(-c2ccccc2)cc1 ... 0
O=C(Cn1cnc2c1CCCC2)Nc1ccc(-c2ccccc2)cc1 ... 0
Cc1nc2c(c(N3CCCN(Cc4ccccc4)CC3)n1)CCCC2 ... 0.3

We now examine a further molecule.
Data point: CC(C)c1nccn1CC(=O)Nc1ccc(-c2ccccc2)cc1 ; Fold increase (over baseline) = 0.2

* * *

tested on: TA 98; assay: Ames Test, strain TA 98; details: TA 98, 100 μM
observation.type: Mean ± SD

Known Mean ± SD results, listed for orientation:
O=C(Cn1ccnc1-c1ccccn1)Nc1ccc(-c2ccccc2)cc1 ... 0 ± 0 revertant colonies per plate
CC(C)(C)Sc1ccc(NC(=O)Cn2ccnc2)cc1 ... 0.5 ± 0.7 revertant colonies per plate
O=C(Cn1cnc2c1CCCC2)Nc1ccc(-c2ccccc2)cc1 ... 0.5 ± 0.7 revertant colonies per plate

Measured Mean ± SD (TA 98), entry CC(C)c1nccn1CC(=O)Nc1ccc(-c2ccccc2)cc1 : 0.5 ± 0.7 revertant colonies per plate

Measured Mean ± SD (TA 98), entry Cc1nc2c(c(N3CCCN(Cc4ccccc4)CC3)n1)CCCC2 : 1 ± 0 revertant colonies per plate

* * *

Entries and their Mean ± SD
tested on: TA 100; test: Ames Test, strain TA 100; settings: TA 100, 50 μM

Known Mean ± SD results, listed for orientation:
O=C(Cn1cnc2c1CCCC2)Nc1ccc(-c2ccccc2)cc1 ... 0 ± 0 revertant colonies per plate
CC(C)c1nccn1CC(=O)Nc1ccc(-c2ccccc2)cc1 ... 8.5 ± 6.36 revertant colonies per plate
Cc1nc2c(c(N3CCCN(Cc4ccccc4)CC3)n1)CCCC2 ... 6.5 ± 0.7 revertant colonies per plate
CC(C)(C)Sc1ccc(NC(=O)Cn2ccnc2)cc1 ... 5.5 ± 0.7 revertant colonies per plate

Data point: O=C(Cn1ccnc1-c1ccccn1)Nc1ccc(-c2ccccc2)cc1 ; Mean ± SD = 5.5 ± 2.12 revertant colonies per plate

* * *

molecular target: CYP 2D6 (Homo sapiens (Human), UniProt P10635); experiment: in vitro; conditions: Inhibition, % (individual replicates)
Sequence (P10635 whole entry): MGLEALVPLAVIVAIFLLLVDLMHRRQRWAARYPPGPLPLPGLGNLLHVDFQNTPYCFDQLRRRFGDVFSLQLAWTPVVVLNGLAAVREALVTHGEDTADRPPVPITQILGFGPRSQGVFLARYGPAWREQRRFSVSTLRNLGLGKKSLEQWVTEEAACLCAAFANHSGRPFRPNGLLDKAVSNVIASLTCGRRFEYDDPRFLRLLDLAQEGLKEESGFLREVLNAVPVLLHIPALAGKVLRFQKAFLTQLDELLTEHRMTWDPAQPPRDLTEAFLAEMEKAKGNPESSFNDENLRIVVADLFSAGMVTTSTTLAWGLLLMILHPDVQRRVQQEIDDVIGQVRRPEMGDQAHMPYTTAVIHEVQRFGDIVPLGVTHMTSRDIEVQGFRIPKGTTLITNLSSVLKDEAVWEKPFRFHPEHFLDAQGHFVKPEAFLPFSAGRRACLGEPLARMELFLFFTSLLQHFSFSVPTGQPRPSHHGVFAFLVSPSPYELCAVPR
observation.type: inhibition at 10 µM (%)
API: value field is a number in %; no unit string.

O=C(Cn1cnc2c1CCCC2)Nc1ccc(-c2ccccc2)cc1 ... 18.5

We now examine a further compound.
Data point: CC(C)(C)Sc1ccc(NC(=O)Cn2ccnc2)cc1 ; inhibition at 10 µM = 98.9

* * *

Tested on: wp2[pKM101]+wp2 uvrA mixed 1:2
Test: Ames Test, E. coli
Details: 200 μM (row printed 0; conc. column shifted)
Excerpt: The test used amino acid-dependent strains of Salmonella typhimurium and Escherichia coli to detect point mutations which involved substitution, addition or deletion of one or a few DNA base pairs. […] The test detected mutations that revert the mutations present in the bacteria, restoring the functional capability to synthesize histidine or tryptophan. The revertant bacteria were detected by the ability to grow in the absence of the amino acid required by the parent test strain. […]
observation.type: Fold increase (over baseline)
Answer field: number only, no words.

Data point: CC(C)c1nccn1CC(=O)Nc1ccc(-c2ccccc2)cc1 ; Fold increase (over baseline) = 0.5

Data point: Cc1nc2c(c(N3CCCN(Cc4ccccc4)CC3)n1)CCCC2 ; Fold increase (over baseline) = 0

Data point: O=C(Cn1ccnc1-c1ccccn1)Nc1ccc(-c2ccccc2)cc1 ; Fold increase (over baseline) = 1.38

Data point: O=C(Cn1cnc2c1CCCC2)Nc1ccc(-c2ccccc2)cc1 ; Fold increase (over baseline) = 0

* * *

target: CYP 2C9 (Homo sapiens (Human)); assay: P450-Glo CYP450 inhibition, CYP 2C9; format: in vitro ADME; details: human, P450-Glo Assay System (Promega), CYP 2C9 membranes, CYP 2C9, 10 μM; read-out: Inhibition, % (individual replicates)
Entries and their inhibition at 10 µM
Hi, when you answer, please include the unit after the number. Thanks!

CC(C)(C)Sc1ccc(NC(=O)Cn2ccnc2)cc1 [Compound 3] ... 96.2%

We now examine a further compound.
Data point: CC(C)c1nccn1CC(=O)Nc1ccc(-c2ccccc2)cc1 [Compound 2] ; inhibition at 10 µM = 36.6%
